System: Ipomoea hederacea (IPOHE)
experiment description: Pre-emergence herbicide glasshouse test
Format: in vivo
test context: 250 g/ha, evaluated after 13 days, five-point scale
Description: Seeds of a variety of test species are sown in standard soil in pots Amaranthus retoflexus (AMARE), Amaranthus palmeri (AMAPA), Echinochloa crus-galli (ECHCG), Ipomoea hederacea (IPOHE), Setaria faberi (SETFA). […] After 13 days for pre and post-emergence, the test is evaluated for the percentage damage caused to the plant. […]
Measured percentage damage caused to the plant, IPOHE by item

# lookup: percentage damage caused to the plant, IPOHE of `Cc1cnc(Oc2cccc3nc(C(F)(F)F)nc(CCC4CC4)c23)nc1`
3 (3=41-60%)

Given the compound `FC(F)(F)c1nc(CCC2CC2)c2c(Oc3ncc(Cl)cn3)cccc2n1` , what is its reported percentage damage caused to the plant, IPOHE?
1 (1=0-20%)

# get_value(readout='percentage damage caused to the plant, IPOHE', item= CC(=NOCC1CC1)c1nc(C(F)(F)F)nc2cccc(Oc3ncc(Cl)cn3)c12 [Compound 1.003] )
1 (1=0-20%)

Dear colleague, I am looking for the recorded percentage damage caused to the plant, IPOHE of the following compound: `FC(F)(F)c1nc(-c2ncccn2)c2c(Oc3ncc(Cl)cn3)cccc2n1`
1 (1=0-20%)

---

System: Amaranthus retoflexus (AMARE)
experiment description: Pre-emergence herbicide glasshouse test
Assay type: in vivo
test context: 250 g/ha, evaluated after 13 days, five-point scale
Entries annotated with measured percentage damage caused to the plant, AMARE

Use the examples below as a reference point.
FC(F)(F)c1nc(CCC=NOCC2CC2)c2c(Oc3ncc(Cl)cn3)cccc2n1 [Compound 1.068]; 4 (4=61-80%)
Cc1cnc(Oc2cccc3nc(C(F)(F)F)nc(CCC4CC4)c23)nc1; 5 (5=81-100%)

# get_value(readout='percentage damage caused to the plant, AMARE', item= FC(F)(F)c1nc(CCC=NOCC2CC2)c2c(Oc3ncc(Cl)cn3)cccc2n1 [Compound 1.005] )
3 (3=41-60%)

Consider the molecule `Cc1ccc(Oc2ncc(Cl)cn2)c2c(CCC3CC3)nc(C(F)(F)F)nc12` and give its measured percentage damage caused to the plant, AMARE.
1 (1=0-20%)

Any idea what its percentage damage caused to the plant, AMARE is? The molecule is `CO/N=C\CCc1nc(C(F)(F)F)nc2cccc(Oc3ncc(Cl)cn3)c12`
5 (5=81-100%)

---

Test system: Echinochloa crus-galli (ECHCG)
experiment description: Pre-emergence herbicide glasshouse test
Assay type: in vivo
test context: 250 g/ha, evaluated after 13 days, five-point scale
value kind: percentage damage caused to the plant, ECHCG

These recorded examples may help you get a feel for the data.
Cc1ncc(-c2nc(C(F)(F)F)nc3cccc(Oc4ncc(Cl)cn4)c23)cn1 [Compound 1.014]; 1 (1=0-20%)
OCCCc1nc(C(F)(F)F)nc2cccc(Oc3ncc(Cl)cn3)c12 [Compound 1.039]; 2 (2=21-40%)

Now let's try a different one.
Please look up its percentage damage caused to the plant, ECHCG: CC(=NOCC1CC1)c1nc(C(F)(F)F)nc2cccc(Oc3ncc(Cl)cn3)c12 [Compound 1.065]
1 (1=0-20%)

---

Catalogue of percentage damage caused to the plant, ECHCG values
Tested on: Echinochloa crus-galli (ECHCG)
experiment description: Pre-emergence herbicide glasshouse test
Assay type: in vivo
test context: 250 g/ha, evaluated after 13 days, five-point scale
Procedure: Seeds of a variety of test species are sown in standard soil in pots Amaranthus retoflexus (AMARE), Amaranthus palmeri (AMAPA), Echinochloa crus-galli (ECHCG), Ipomoea hederacea (IPOHE), Setaria faberi (SETFA). […] After 13 days for pre and post-emergence, the test is evaluated for the percentage damage caused to the plant. […]

CN(C)/C=C/c1nc(C(F)(F)F)nc2cccc(Oc3ncc(Cl)cn3)c12 [Compound 1.010]; 1 (1=0-20%)
Fc1cnc(Oc2cccc3nc(C(F)(F)F)nc(CCC4CC4)c23)nc1 [Compound 1.064]; 4 (4=61-80%)
O=C(c1ccc(Br)cn1)c1nc(C(F)(F)F)nc2cccc(Oc3ncc(Cl)cn3)c12 [Compound 1.026]; 1 (1=0-20%)
FC(F)(F)c1nc(CCC=NOCC2CC2)c2c(Oc3ncc(Cl)cn3)cccc2n1 [Compound 1.005]; 4 (4=61-80%)
O=C(c1ccccn1)c1nc(C(F)(F)F)nc2cccc(Oc3ncc(Cl)cn3)c12 [Compound 1.029]; 1 (1=0-20%)

Please look up its percentage damage caused to the plant, ECHCG: FC(F)(F)c1nc(-c2ncccn2)c2c(Oc3ncc(Cl)cn3)cccc2n1 [Compound 1.069]
1 (1=0-20%)

Field request: percentage damage caused to the plant, ECHCG | item: FC(F)(F)c1nc(CC=NOCC2CC2)c2c(Oc3ncc(Cl)cn3)cccc2n1 [Compound 1.008]
1 (1=0-20%)

I would be grateful if you could share the reported percentage damage caused to the plant, ECHCG for FC(F)(F)CCC(Br)c1nc(C(F)(F)F)nc2cccc(Oc3ncc(Cl)cn3)c12 (centres unmarked) [Compound 1.071] .
5 (5=81-100%)

---

Tested on: Amaranthus palmeri (AMAPA)
experiment description: Post-emergence herbicide glasshouse test
Type: in vivo
test context: 250 g/ha, evaluated after 13 days, five-point scale
value kind: percentage damage caused to the plant, AMAPA

C=CCON=CCCc1nc(C(F)(F)F)nc2cccc(Oc3ncc(Cl)cn3)c12 [Compound 1.067]; 5 (5=81-100%)
CN(C)/C=C/c1nc(C(F)(F)F)nc2cccc(Oc3ncc(Cl)cn3)c12 [Compound 1.010]; 3 (3=41-60%)
ON=CCCc1nc(C(F)(F)F)nc2cccc(Oc3ncc(Cl)cn3)c12 [Compound 1.021]; 4 (4=61-80%)

GET /values?readout=percentage damage caused to the plant, AMAPA&item= O=C(c1cccnc1)c1nc(C(F)(F)F)nc2cccc(Oc3ncc(Cl)cn3)c12 [Compound 1.030]
5 (5=81-100%)

Need percentage damage caused to the plant, AMAPA of Cn1nc(-c2nc(C(F)(F)F)nc3cccc(Oc4ncc(Cl)cn4)c23)cc1C(F)F [Compound 1.016] , thanks.
2 (2=21-40%)

Need percentage damage caused to the plant, AMAPA, item CCNC(=O)CCc1nc(C(F)(F)F)nc2cccc(Oc3ncc(Cl)cn3)c12 [Compound 1.012]
3 (3=41-60%)

---

Tested on: Amaranthus palmeri (AMAPA)
experiment description: Post-emergence herbicide glasshouse test
Assay type: in vivo
test context: 250 g/ha, evaluated after 13 days, five-point scale
value kind: percentage damage caused to the plant, AMAPA

FC(F)(F)c1ncc(-c2nc(C(F)(F)F)nc3cccc(Oc4ncc(Cl)cn4)c23)cn1; 2 (2=21-40%)
CO/N=C\CCc1nc(C(F)(F)F)nc2cccc(Oc3ncc(Cl)cn3)c12; 4 (4=61-80%)
FC(F)(F)c1nc(CCC2CC2)c2c(Oc3ncc(Cl)cn3)ccc(Br)c2n1; 3 (3=41-60%)
CCON=CCc1nc(C(F)(F)F)nc2cccc(Oc3ncc(Cl)cn3)c12; 2 (2=21-40%)
CCO/N=C\CCc1nc(C(F)(F)F)nc2cccc(Oc3ncc(Cl)cn3)c12; 4 (4=61-80%)

Which measured percentage damage caused to the plant, AMAPA value corresponds to `FC(F)(F)c1nc(CCCC2CC2)c2c(Oc3ncc(Cl)cn3)cccc2n1` ?
5 (5=81-100%)

Tell me the measured percentage damage caused to the plant, AMAPA of CC(=NOCC1CC1)c1nc(C(F)(F)F)nc2cccc(Oc3ncc(Cl)cn3)c12 [Compound 1.065] , please.
2 (2=21-40%)

// lookup percentage damage caused to the plant, AMAPA for `Cc1ncc(-c2nc(C(F)(F)F)nc3cccc(Oc4ncc(Cl)cn4)c23)cn1`
1 (1=0-20%)

Which percentage damage caused to the plant, AMAPA is listed for C=CCON=CCCc1nc(C(F)(F)F)nc2cccc(Oc3ncc(Cl)cn3)c12 [Compound 1.011] ?
4 (4=61-80%)

Which value of percentage damage caused to the plant, AMAPA has been reported for `FC(F)c1cc(-c2nc(C(F)(F)F)nc3cccc(Oc4ncc(Cl)cn4)c23)on1` in the records?
4 (4=61-80%)

What value of measured percentage damage caused to the plant, AMAPA is listed for `CC(=O)c1nc(C(F)(F)F)nc2cccc(Oc3ncc(Cl)cn3)c12` ?
4 (4=61-80%)
